Reported normalised growth rate inhibition values for the following molecules.
# Test system: SKBR3
# experimental details: normalised growth rate inhibition (GR value) relative to DMSO control (GR (1 = untreated growth, 0 = cytostasis, <0 = cytotoxic)); higher = less growth inhibition
# measurement parameters: 0.37 µM; 72 h

molecule	normalised growth rate inhibition
CNC(=O)c1ccc(Nc2cc(Nc3ccccc3S(=O)(=O)C(C)C)c3cc[nH]c3n2)nc1	0.514
C=CC(=O)Nc1cc(-n2c(=O)ccc3cnc4ccc(-c5cn[nH]c5)cc4c32)ccc1C	0.233
COc1cc2c(Oc3ccc(NC(=O)C4(C(=O)Nc5ccc(F)cc5)CC4)cc3F)ccnc2cc1OCCCN1CCOCC1	0.0769
N#CC(c1ccnc(NCCc2cccnc2)n1)c1nc2ccccc2s1 (configuration not stated)	0.876
C#Cc1cccc(Nc2ncnc3cc(OCCOC)c(OCCOC)cc23)c1	0.946
O=c1[nH]c2ccccc2n1C1CCN(Cc2ccc(-c3[nH]c4cc5ncnc5cc4nc3-c3ccccc3)cc2)CC1	0.766
Cc1ccc(F)c(NC(=O)Nc2ccc(-c3cccc4[nH]nc(N)c34)cc2)c1	1.11
C[C@@H]1C[C@H]2O[C@@H]2/C=C\C=C\C(=O)Cc2c(Cl)c(O)cc(O)c2C(=O)O1	0.0279
Cc1nc(NC(=O)N2CCC[C@H]2C(N)=O)sc1-c1ccnc(C(C)(C)C(F)(F)F)c1	0.679
COc1ccc(-c2ccc3c(N4CCOC[C@@H]4C)nc(N4CCOC[C@@H]4C)nc3n2)cc1CO	-0.0997
Cn1cc(C2=C(c3cn(C4CCN(Cc5ccccn5)CC4)c4ccccc34)C(=O)NC2=O)c2ccccc21	1.1
CN(c1ncccc1CNc1nc(Nc2ccc3c(c2)CC(=O)N3)ncc1C(F)(F)F)S(C)(=O)=O	0.704
Cn1cnc2c(F)c(Nc3ccc(Br)cc3Cl)c(C(=O)NOCCO)cc21	1.04
CN(c1ccccc1CNc1nc(Nc2ccc3c(c2)CC(=O)N3)ncc1C(F)(F)F)S(C)(=O)=O	0.306
Cc1cc([C@@H](C)Nc2ccccc2C(=O)O)c2nc(N3CCOCC3)cc(=O)n2c1	1
CN(C)C/C=C/C(=O)Nc1cc2c(Nc3ccc(F)c(Cl)c3)ncnc2cc1O[C@H]1CCOC1	-0.117
CS(=O)(=O)N1CCN(Cc2cc3nc(-c4cccc5[nH]ncc45)nc(N4CCOCC4)c3s2)CC1	0.131

meta.source: the supplement of paper PMC5662764
